assay: in vitro; assay type: cell-based; details: human
PROPERTY: viability at 6 h, 6 μg/ml
Reply with the number and its unit after it.

-- ask Output measured viability at 6 h, 6 μg/ml for this item: C[C@H]1[C@H](C)CC[C@]2(C(=O)O)CC[C@]3(C)C(=CC[C@@H]4[C@@]5(C)CC[C@H](O)C(C)(C)[C@@H]5CC[C@]43C)[C@H]12 [ursolic acid]
-- reply 96%
